This section presents compounds with their documented inhibition values.
- Target Entity: Botulinum neurotoxin type A (Clostridium botulinum) (UniProt P0DPI0)
- Sequence (P0DPI0 2-448 limits assumed): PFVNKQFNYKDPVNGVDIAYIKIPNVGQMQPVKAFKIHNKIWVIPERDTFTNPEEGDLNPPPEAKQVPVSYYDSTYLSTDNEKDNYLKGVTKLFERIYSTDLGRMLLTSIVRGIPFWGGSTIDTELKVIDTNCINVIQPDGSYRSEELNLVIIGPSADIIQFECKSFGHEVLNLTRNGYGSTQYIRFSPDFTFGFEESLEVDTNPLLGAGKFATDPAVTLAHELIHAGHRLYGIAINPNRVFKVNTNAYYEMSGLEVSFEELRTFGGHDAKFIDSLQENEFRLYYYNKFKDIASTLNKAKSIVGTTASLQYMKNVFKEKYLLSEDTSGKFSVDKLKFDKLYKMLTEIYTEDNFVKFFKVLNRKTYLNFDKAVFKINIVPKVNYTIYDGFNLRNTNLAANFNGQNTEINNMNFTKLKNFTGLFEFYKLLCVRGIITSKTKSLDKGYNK
- Assay Comment: Inhibition of Clostridium botulinum recombinant BoNT/A light chain using N-terminal acetylated, C-terminal aminated SNAP-25 (187-203) as substrate at 20 uM by reverse-phase HPLC analysis
Measured Metric: inhibition (%)

>>> measured_result("CC(=O)O[C@H]1C[C@H]2[C@@H]([C@H](OC(C)=O)C[C@@H]3CC(=O)CC[C@@]32C)[C@@H]2CC[C@H]([C@H](C)CCCNCCCCNc3ccnc4cc(Cl)ccc34)[C@@]12C")
81.5
>>> measured_result("CC(=O)O[C@H]1C[C@H]2[C@@H]([C@H](OC(C)=O)C[C@@H]3C[C@H](N)CC[C@@]32C)[C@@H]2CC[C@H]([C@H](C)CCCN(CCC[C@@H](C)[C@H]3CC[C@H]4[C@@H]5[C@H](OC(C)=O)C[C@@H]6C[C@H](N)CC[C@]6(C)[C@H]5C[C@H](OC(C)=O)[C@]34C)CCNc3ccnc4cc(Cl)ccc34)[C@@]12C")
82.2
>>> measured_result("CC(=O)O[C@H]1C[C@H]2[C@@H]([C@H](OC(C)=O)C[C@@H]3C[C@H](O)CC[C@@]32C)[C@@H]2CC[C@H]([C@H](C)CCCNCCCCNc3ccnc4cc(Cl)ccc34)[C@@]12C")
80.8
>>> measured_result("CC(=O)O[C@@H]1CC[C@@]2(C)[C@@H](C1)C[C@@H](OC(C)=O)[C@@H]1[C@@H]2C[C@H](OC(C)=O)[C@]2(C)[C@@H]([C@H](C)CCCNCCCNc3ccnc4cc(Cl)ccc34)CC[C@@H]12")
81.4

###

- Target Entity: Botulinum neurotoxin type A (Clostridium botulinum, UniProt P0DPI0)
- Assay Comment: Inhibition of Clostridium botulinum recombinant BoNT/A light chain using N-terminal acetylated, C-terminal aminated SNAP-25 (187-203) as substrate by reverse-phase HPLC analysis
Measured Metric: IC50 (µM)

>>> measured_result("CC(=O)O[C@H]1C[C@H]2[C@@H]([C@H](OC(C)=O)C[C@@H]3C[C@H](N)CC[C@@]32C)[C@@H]2CC[C@H]([C@H](C)CCCN(C)CCNc3ccnc4cc(Cl)ccc34)[C@@]12C")
1.14
>>> measured_result("CC(=O)O[C@H]1C[C@H]2[C@@H]([C@H](OC(C)=O)C[C@@H]3C[C@H](N(C)C)CC[C@@]32C)[C@@H]2CC[C@H]([C@H](C)CCCNCCCNc3ccnc4cc(Cl)ccc34)[C@@]12C")
1.34
>>> measured_result("N=C(N)c1ccc(Oc2ccc(-c3cc4ccc(C(=N)N)cc4[nH]3)cc2)cc1")
2.62
>>> measured_result("CC(=O)O[C@H]1C[C@H]2[C@@H]([C@H](OC(C)=O)C[C@@H]3C[C@H](NC(=O)OC(C)(C)C)CC[C@@]32C)[C@@H]2CC[C@H]([C@H](C)CCCNCCCNc3ccnc4cc(Cl)ccc34)[C@@]12C")
3.24
>>> measured_result("CC(=O)O[C@H]1C[C@H]2[C@@H]([C@H](OC(C)=O)C[C@@H]3C[C@H](N)CC[C@@]32C)[C@@H]2CC[C@H]([C@H](C)CCCNCCCNc3ccnc4cc(Cl)ccc34)[C@@]12C")
1.04
>>> measured_result("CC(=O)O[C@H]1C[C@H]2[C@@H]([C@H](OC(C)=O)C[C@@H]3C[C@H](NS(C)(=O)=O)CC[C@@]32C)[C@@H]2CC[C@H]([C@H](C)CCCNCCNc3ccnc4cc(Cl)ccc34)[C@@]12C")
5.09
>>> measured_result("CC(=O)O[C@H]1C[C@H]2[C@@H]([C@H](OC(C)=O)C[C@@H]3C[C@H](N)CC[C@@]32C)[C@@H]2CC[C@H]([C@H](C)CCCN(C)CCCNc3ccnc4cc(Cl)ccc34)[C@@]12C")
1.13
>>> measured_result("CC(=O)O[C@H]1C[C@H]2[C@@H]([C@H](OC(C)=O)C[C@@H]3C[C@H](NS(C)(=O)=O)CC[C@@]32C)[C@@H]2CC[C@H]([C@H](C)CCCNCCCNc3ccnc4cc(Cl)ccc34)[C@@]12C")
3.25
